- SYSTEM_NAME: NA transporter (Rattus norvegicus)
- Construct: from tissue; host or cells: rat brain (hypothalamus), synaptosomes, P2 fraction
- PROTOCOL_NOTES: Noradrenalin (NA) uptake inhibition, synaptosomes from rat brain (hypothalamus)
- Format: biochemical
ASSAY_READOUT: inhibition at 10 µM (%)

{"columns": ["COMPOUND", "ENDPOINT_VALUE"],
 "data": [
  ["Cc1ccc(NC(=O)c2noc3c2CN(S(=O)(=O)c2ccc(C)cc2)CC3)cc1", 24],
  ["O=C(c1noc2c1CN(S(=O)(=O)c1ccc(Cl)c(Cl)c1)CC2)N1CCN(c2nccs2)CC1", 46],
  ["O=C(c1noc2c1CN(S(=O)(=O)c1ccccc1)CC2)N1CCN(CC=Cc2ccccc2)CC1", 75],
  ["O=C(c1noc2c1CN(S(=O)(=O)c1ccc3ccccc3c1)CC2)N1CCN(c2nccs2)CC1", 44],
  ["CC12CCC(C(=O)N3CCc4onc(C(=O)NCCN5CCCC5)c4C3)(OC1=O)C2(C)C (centres unmarked)", 73],
  ["O=C(NCCN1CCCC1)c1noc2c1CN(S(=O)(=O)c1cccc(Cl)c1)CC2", 63],
  ["Cc1cc(C)c(S(=O)(=O)N2CCc3onc(C(=O)N4CCN(c5nccs5)CC4)c3C2)c(C)c1", 41],
  ["CN(C)S(=O)(=O)N1CCc2onc(C(=O)NCCc3ccc(Cl)c(Cl)c3)c2C1", 63]
]}

---

- SYSTEM_NAME: 5-HT transporter (Rattus norvegicus)
- Construct: from tissue; host or cells: rat brain (medulla and pons), synaptosomes, P2 fraction
- Sequence (P31652 whole entry): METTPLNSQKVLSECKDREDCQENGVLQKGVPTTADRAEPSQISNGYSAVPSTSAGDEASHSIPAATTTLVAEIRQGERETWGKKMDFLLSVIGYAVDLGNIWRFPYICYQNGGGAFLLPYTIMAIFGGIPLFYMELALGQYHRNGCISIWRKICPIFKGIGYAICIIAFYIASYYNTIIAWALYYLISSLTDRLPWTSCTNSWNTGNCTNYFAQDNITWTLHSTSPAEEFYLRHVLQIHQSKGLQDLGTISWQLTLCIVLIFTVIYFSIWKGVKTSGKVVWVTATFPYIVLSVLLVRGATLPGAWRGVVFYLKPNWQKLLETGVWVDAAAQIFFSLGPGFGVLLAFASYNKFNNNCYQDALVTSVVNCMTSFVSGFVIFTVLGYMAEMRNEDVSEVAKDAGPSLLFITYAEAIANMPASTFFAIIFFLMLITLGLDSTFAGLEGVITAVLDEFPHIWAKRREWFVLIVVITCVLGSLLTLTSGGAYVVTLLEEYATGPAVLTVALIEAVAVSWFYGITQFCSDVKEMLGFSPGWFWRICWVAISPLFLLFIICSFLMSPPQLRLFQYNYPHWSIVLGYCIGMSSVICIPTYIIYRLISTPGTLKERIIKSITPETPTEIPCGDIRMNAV
- PROTOCOL_NOTES: 5-HT uptake inhibition, synaptosomes from rat brain (medulla and pons)
- Format: biochemical
Category key, based on recorded inhibition at 10 µM: L (below 60%), M (60% to below 70%), H (70% or more)

{"columns": ["COMPOUND", "CLASS_LABEL"],
 "data": [
  ["Cc1ccc(NC(=O)c2noc3c2CN(S(=O)(=O)c2ccc(C)cc2)CC3)cc1 [Example 152]", "L"],
  ["CN(C)S(=O)(=O)N1CCc2onc(C(=O)N(CCC#N)Cc3cccnc3)c2C1 [Example 70]", "M"],
  ["O=C(Nc1ccccc1)c1noc2c1CN(C(=O)c1ccccc1F)CC2 [Example 156]", "L"],
  ["Cc1cc(C(=O)N2CCc3onc(C(=O)NCCN4CCOCC4)c3C2)ccc1Br [Example 90]", "M"],
  ["CC(C)CNC(=O)c1noc2c1CN(C(=O)c1cc(C(F)(F)F)ccc1Cl)CC2 [Example 116]", "H"],
  ["CN(C)CCNC(=O)c1noc2c1CN(C(=O)c1cccc(OC(F)(F)F)c1)CC2 [Example 119]", "H"],
  ["CC(C)C(NC(=O)c1noc2c1CN(S(=O)(=O)c1cccc(C(F)(F)F)c1)CC2)C(=O)OC(C)(C)C (stereo not shown) [Example 67]", "H"],
  ["Cc1cc(C)c(S(=O)(=O)N2CCc3onc(C(=O)N4CCN(c5nccs5)CC4)c3C2)c(C)c1 [Example 141]", "L"],
  ["COc1ccc(S(=O)(=O)N2CCc3onc(C(=O)NC(CCC(=O)OC(C)(C)C)C(N)=O)c3C2)cc1 (stereo not shown) [Example 88]", "M"],
  ["O=C(c1noc2c1CN(S(=O)(=O)c1ccc3ccccc3c1)CC2)N1CCN(c2nccs2)CC1 [Example 143]", "L"],
  ["Cc1cccc2c(CCNC(=O)c3noc4c3CN(S(=O)(=O)c3ccc(OC(F)(F)F)cc3)CC4)c[nH]c12 [Example 100]", "H"],
  ["O=C(NC1CCc2ccccc21)c1noc2c1CN(S(=O)(=O)c1ccccc1)CC2 (stereo not shown) [Example 61]", "M"],
  ["Cc1cc(C)c(S(=O)(=O)N2CCc3onc(C(=O)N4CCC(CCN5CCCC5)CC4)c3C2)c(C)c1 [Example 146]", "L"],
  ["O=C(NCCN1CCCC1)c1noc2c1CN(C(=O)COc1cccc(Cl)c1)CC2 [Example 155]", "H"],
  ["O=C(O)COCC(=O)N1CCc2onc(C(=O)NCc3cccs3)c2C1 [Example 30]", "L"],
  ["O=C(NCCc1ccccc1Cl)c1noc2c1CN(S(=O)(=O)c1cc(Cl)ccc1Cl)CC2 [Example 52]", "H"],
  ["Cc1ccc(N2CCN(C(=O)c3noc4c3CN(S(=O)(=O)c3cc(Cl)ccc3Cl)CC4)CC2)c(C)c1 [Example 65]", "H"]
]}

---

- SYSTEM_NAME: NA transporter (Rattus norvegicus, UniProt Q9WTR4)
- Construct: from tissue; host or cells: rat brain (hypothalamus), synaptosomes, P2 fraction
- Sequence (Q9WTR4 1-597): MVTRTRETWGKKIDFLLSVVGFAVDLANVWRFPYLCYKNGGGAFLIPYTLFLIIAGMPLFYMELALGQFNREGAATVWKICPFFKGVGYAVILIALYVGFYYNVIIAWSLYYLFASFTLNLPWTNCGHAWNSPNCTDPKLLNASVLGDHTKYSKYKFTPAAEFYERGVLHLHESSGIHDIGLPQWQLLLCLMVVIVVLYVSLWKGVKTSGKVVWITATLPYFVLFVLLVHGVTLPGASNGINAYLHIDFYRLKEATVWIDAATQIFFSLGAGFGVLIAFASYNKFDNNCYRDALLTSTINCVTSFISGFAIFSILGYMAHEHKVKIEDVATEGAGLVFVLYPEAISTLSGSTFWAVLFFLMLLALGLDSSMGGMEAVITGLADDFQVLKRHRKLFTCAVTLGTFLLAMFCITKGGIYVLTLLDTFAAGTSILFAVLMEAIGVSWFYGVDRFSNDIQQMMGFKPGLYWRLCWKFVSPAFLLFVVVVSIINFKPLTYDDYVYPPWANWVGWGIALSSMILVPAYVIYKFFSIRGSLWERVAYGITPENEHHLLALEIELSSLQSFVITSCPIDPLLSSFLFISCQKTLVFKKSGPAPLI
- PROTOCOL_NOTES: Noradrenalin (NA) uptake inhibition, synaptosomes from rat brain (hypothalamus)
- Assay type: biochemical
So basically: inhibition at 10 µM at 70% or higher? That is Satisfied. Lower than 70%? That is Not satisfied.

{"columns": ["MOLECULE", "SYSTEM_NAME", "CLASS_LABEL"],
 "data": [
  ["COc1ccc(NC(=O)N2CCc3onc(C(=O)NCc4ccc(S(N)(=O)=O)cc4)c3C2)cc1", "NA transporter (Rattus norvegicus, UniProt Q9WTR4)", "Not satisfied"],
  ["Cl.O=C(c1noc2c1CN(S(=O)(=O)c1cccc3ccccc13)CC2)N1CCC(CCN2CCCC2)CC1 [Example 149, hydrochloride]", "NA transporter (Rattus norvegicus, UniProt Q9WTR4)", "Not satisfied"],
  ["CC(NC(=O)N1CCc2onc(C(=O)NCc3ccccc3)c2C1)c1ccccc1 (stereo not shown)", "NA transporter (Rattus norvegicus, UniProt Q9WTR4)", "Not satisfied"],
  ["O=C(NC1CCN(Cc2ccc(C(F)(F)F)cc2)C1)c1noc2c1CN(S(=O)(=O)c1ccc(F)cc1)CC2 (stereo not shown)", "NA transporter (Rattus norvegicus, UniProt Q9WTR4)", "Not satisfied"],
  ["O=C(NC1CCN(Cc2ccccc2)C1)c1noc2c1CN(S(=O)(=O)c1ccc(OC(F)(F)F)cc1)CC2 (stereo not shown)", "NA transporter (Rattus norvegicus, UniProt Q9WTR4)", "Satisfied"],
  ["CCOC(=O)CCNC(=O)c1noc2c1CN(C(=O)c1c(F)ccc(C)c1F)CC2", "NA transporter (Rattus norvegicus, UniProt Q9WTR4)", "Not satisfied"],
  ["O=C(NCCCc1ccccc1)c1noc2c1CN(S(=O)(=O)c1ccc(F)cc1)CC2", "NA transporter (Rattus norvegicus, UniProt Q9WTR4)", "Satisfied"],
  ["O=C(c1noc2c1CN(S(=O)(=O)c1cccc3ccccc13)CC2)N1CCN(c2nccs2)CC1", "NA transporter (Rattus norvegicus, UniProt Q9WTR4)", "Not satisfied"],
  ["COc1ccc(OCCNC(=O)c2noc3c2CN(S(=O)(=O)c2ccc(C)cc2)CC3)cc1", "NA transporter (Rattus norvegicus, UniProt Q9WTR4)", "Not satisfied"],
  ["O=C(c1noc2c1CN(S(=O)(=O)c1ccc(Cl)c(Cl)c1)CC2)N1CCC(CCN2CCCC2)CC1", "NA transporter (Rattus norvegicus, UniProt Q9WTR4)", "Not satisfied"],
  ["CN(C)S(=O)(=O)N1CCc2onc(C(=O)N3CCOCC3)c2C1", "NA transporter (Rattus norvegicus, UniProt Q9WTR4)", "Satisfied"],
  ["O=C(NC1CCN(Cc2ccc(C(F)(F)F)cc2)C1)c1noc2c1CN(S(=O)(=O)c1ccccc1)CC2 (stereo not shown)", "NA transporter (Rattus norvegicus, UniProt Q9WTR4)", "Satisfied"],
  ["O=C(NC1CCCC1)c1noc2c1CN(C(=O)C=Cc1ccccc1)CC2", "NA transporter (Rattus norvegicus, UniProt Q9WTR4)", "Satisfied"]
]}

---

- SYSTEM_NAME: NA transporter (Rattus norvegicus, UniProt Q9WTR4)
- Construct: from tissue; host or cells: rat brain (hypothalamus), synaptosomes, P2 fraction
- PROTOCOL_NOTES: Noradrenalin (NA) uptake inhibition, synaptosomes from rat brain (hypothalamus)
- Type: biochemical
Where a name gives a salt, the structure may show the parent alone.
ASSAY_READOUT: inhibition at 10 µM (%)

{"columns": ["COMPOUND", "ASSAY_READOUT", "ENDPOINT_VALUE"],
 "data": [
  ["O=C(NCCN1CCOCC1)c1noc2c1CN(S(=O)(=O)c1cc(Cl)c(Cl)s1)CC2", "inhibition at 10 µM", 77],
  ["O=C(NC1CCN(Cc2ccc3ccccc3c2)C1)c1noc2c1CN(S(=O)(=O)c1ccccc1)CC2 (centres unmarked)", "inhibition at 10 µM", 88],
  ["Cc1ccc(S(=O)(=O)N2CCc3onc(C(=O)NC(C)C(=O)OC(C)(C)C)c3C2)cc1 (centres unmarked)", "inhibition at 10 µM", 62],
  ["O=C(c1noc2c1CN(S(=O)(=O)c1cc(Cl)ccc1Cl)CC2)N(CCc1ccccc1)Cc1ccccc1", "inhibition at 10 µM", 79],
  ["Cc1cc(C)c(S(=O)(=O)N2CCc3onc(C(=O)N4CCN(CCCN(C)C)CC4)c3C2)c(C)c1 [Example 144, dihydrochloride]", "inhibition at 10 µM", 24],
  ["CCC(C)(CC(=O)O)CC(=O)N1CCc2onc(C(=O)Nc3ccccc3)c2C1 (centres unmarked)", "inhibition at 10 µM", 44],
  ["CCOC(=O)CCNC(=O)c1noc2c1CN(C(=O)Cc1ccc3ccccc3c1)CC2", "inhibition at 10 µM", 63],
  ["COc1ccc(CNC(=O)c2noc3c2CN(S(=O)(=O)c2ccccc2)CC3)cc1OC", "inhibition at 10 µM", 67]
]}
